# targetEntity: Tyrosine-protein kinase Lyn (Homo sapiens) (UniProt P07948)
# Sequence (P07948 whole entry, looked up, canonical isoform): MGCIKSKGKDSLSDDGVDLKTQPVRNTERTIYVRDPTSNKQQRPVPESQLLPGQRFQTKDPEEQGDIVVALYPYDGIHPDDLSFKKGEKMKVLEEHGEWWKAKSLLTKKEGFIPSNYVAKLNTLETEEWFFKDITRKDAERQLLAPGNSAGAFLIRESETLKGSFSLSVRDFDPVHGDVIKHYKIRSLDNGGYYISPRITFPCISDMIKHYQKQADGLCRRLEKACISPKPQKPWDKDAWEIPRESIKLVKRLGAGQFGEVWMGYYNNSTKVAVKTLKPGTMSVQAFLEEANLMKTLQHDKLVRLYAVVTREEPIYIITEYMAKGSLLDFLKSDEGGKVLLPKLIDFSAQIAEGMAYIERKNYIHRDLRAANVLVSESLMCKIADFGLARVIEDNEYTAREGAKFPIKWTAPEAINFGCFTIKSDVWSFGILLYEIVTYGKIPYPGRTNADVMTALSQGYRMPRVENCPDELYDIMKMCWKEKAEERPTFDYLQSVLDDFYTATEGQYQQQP
# experimentDescription: LYN A kinase inhibition, dose response, biochemical, LYN A isoform, Z'-LYTE, FRET readout (AID 1671318)
# conditionSummary: Z'-LYTE FRET kinase assay, recombinant LYN A
assayReadout: IC50

Req: Request the reported IC50 associated with COc1cc2ncnc(Nc3cccc(Cl)c3)c2cc1OC
Resp: 208 nM
